System: Male ICR mice
protocol-summary: Change in rectal temperature (RT) in mice
Type: in vivo, mouse
experimental-conditions: Mus musculus, iv, Table 6; mice, i.v.; read-out: R.T. ED50
measurement-type: log10 ED50 (log10 of the value in mg/kg)
Values reflect log10 of reported ED50 (mg/kg).

Solved entries (count: 4):
CCCCCCC(C)(C)c1cc(O)c(C2C3CC4CC(C3)CC2C4)c(O)c1 (stereo not shown) : 0.24
CCCCCCC(C)(C)c1cc(O)c(C2CCCCC2C)c(O)c1 (stereo not shown) : -0.92
CCCCCCC(C)(C)c1cc(O)c([C@H]2CCCC(C)C2)c(O)c1 (single isomer, unassigned) : 0.06
CCCCCCC(C)(C)c1ccc(-c2cc(C)ccc2C(C)C)c(O)c1 : -0.09

## Task API: value(readout= log10 ED50, system= Male ICR mice, query= `CCCCCCC(C)(C)c1cc(O)c(C2=CCCCC2)c(O)c1` )
## Result 0.47

## Task API: value(readout= log10 ED50, system= Male ICR mice, query= `CCCCCCC(C)(C)c1cc(O)c(C2CCCCC2)c(O)c1` )
## Result -0.71

## Task API: value(readout= log10 ED50, system= Male ICR mice, query= CCCCCCC(C)(C)c1cc(O)c(C2CCSC2)c(O)c1 (stereo not shown) )
## Result 0.89
